- assay comment: inhibitors of TNFa-induced NFkB p65 translocation, primary screen, imaging, HUVEC, MLSMR starter and 10KST1 sets (AID 438);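 further: compound added about 3h40 before a 20 min TNFalpha stimulation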
- condition: HUVEC TNFa-induced p65 nuclear translocation; measured here: nuclei count (cytotoxicity indicator), at 2.08 µM
Classification field: enter 1 for cell count values not below 400, 0 for values below it.

Reference set, count: 10
molecule=O=C(c1cccs1)c1cn(CC(=O)N2CCc3ccccc3C2)c2ccccc12 assigned_label=1
molecule=C/C(Cl)=C\Cn1c(NCCc2ccccc2)nc2c1c(=O)n(C)c(=O)n2C assigned_label=1
molecule=CCOCCn1cnc2sc(C(=O)NCC(=O)OCC)c(C)c2c1=O assigned_label=1
molecule=COc1ccccc1S(=O)(=O)n1cc(Cc2ccccc2)c(N)n1 assigned_label=0
molecule="O=S(=O)(c1ccc(OCC(O)CN2CCN(c3ccccc3)CC2)cc1)N1CCOCC1 (stereo unspecified)" assigned_label=1
molecule="CC(C(=O)N1CCc2ccccc21)N1CCc2ccccc2C1 (stereo unspecified)" assigned_label=1
molecule=O=C1CS/C(=N\C(=O)N2c3ccccc3Sc3ccccc32)N1 assigned_label=0
molecule=COc1ccc(C(C)(C)C)cc1NC(=O)Nc1ccc2c(c1)OCO2 assigned_label=1
molecule=CC(=O)Oc1cccc(/C=c2\sc3nc(-c4ccco4)nn3c2=O)c1 assigned_label=0
molecule=Cc1ccnc(NC(=O)CCC(=O)N(CC(=O)NC2CCCCC2)c2cccc(C)c2C)c1 assigned_label=1

Request: cell count >= 400 for "O=C(C1CCN(S(=O)(=O)N2CCC3(CC2)OCCO3)CC1)N1CCOCC1" ?
Response: 1

Request: cell count >= 400 for "O=C(CN1C(=O)NC2(CCCCCC2)C1=O)N1CCC(Cc2ccccc2)CC1" ?
Response: 1

Request: cell count >= 400 for "Cc1nc(N2CCOCC2)[nH]c(=O)c1CCC(C)C" ?
Response: 1

Request: cell count >= 400 for CCN1CCCC1CNCc1ccc(Cl)cc1Cl (stereo unspecified) ?
Response: 1

Request: cell count >= 400 for "COc1ccccc1-c1nc(C(F)(F)F)c(OC)o1" ?
Response: 1
